- SYSTEM NAME: Peptide 1593 (…) (Mycobacterium tuberculosis)
- ASSAY NOTES: indirect ELISA, supernatant on 1 ug/ml coated peptide
Recorded OD450, supernatant 1:270 for the following binders
# output: bare number, implied unit OD450

Look over these answered cases.
>>> value_measured("Antibody 101G10-2 (antibody, V domains shown) VH: QSVEESGGRLVTPGTPLTLTCTVSGFSLSSYDMTWVRQAPGKGLEYIGVISYGGSAYYASWAKGRFTISKTSTTVDLKITSPTTEDTATYFCARGDSDGSSELFNLWGQGTLVTVSS VL: AVLTQTPSPVSAPVGGTVSINCQSSKSVYNNNCLSWYQQKPGQPPNLLIYGASTLASGVPSRFKGSGSGTQFTLTINDVQCDDAATYYCAGCFASTNDMYGFGGGSEVVVK")
3.21
>>> value_measured("Antibody 67G8-2 (antibody, V domains shown) VH: QSVEESGGRLVTPGTPLTLTCTVSGFSLGNYDGHWVRQTPEKGLEWIGVIATIGDTYYASWAKGRFSISKTSATVELRITSPTTEDTATYFCVRGDSRTSNEIFNLWGQGTLVTVSS VL: AVLTQTPSPVSAAVGGTLTINCQSTRSVHNNICLSWYQQKPGQPPKLLIYSASTLASGVPSRFKGSGSGTQFTLAINDVQCGDAATYYCAGCFPSKSDMYGFGGGTEVVVK")
2.33
>>> value_measured("Antibody 91B4-1 (antibody, V domains shown) VH: QSLEESGGRLVSPGGSLTLTCTVSGIDLSRFGVSWVRQAPGKGLEWTGYIHTDGNVYYASWAKGRFTISKTSTTVDLKMTSLTTEDTATYFCARGGYAADLWGQAALVTVSS VL: DPMLTQTPSSVSAAVGGTVTISCQSSESVYKNYLAWYQQKLGQPPKLLIGATSTLVSGVPSRFKGSGSRTQFSLTISDLECDDAATYYCVGGYTGKNVFGGGTEVVVK")
2.27
>>> value_measured("Antibody 125D9-1 (antibody, V domains shown) VH: QPVEESGGRLVTPGTPLTLTCTVSGFSLSSYDMTWVRQAPGKGLEYIGVVAYGGATYYASWAKGRFTISKTSTTVDLKITSPTTEDTATYFCARGDSDGSSELFNLWGQGTLVTVSS VL: AVLTQTPSPVSAAVGGTVTINCQSSKSVYNNNCLSWYQQKQGQPPKLLIYQASTPASGVPSRFKGSGSGTQFTLTINDVQCDDAATYYCAGCFASTSDMYGFGGGTGVVVK")
3.31

Query block: Which OD450, supernatant 1:270 is listed for Antibody 135A6-1 (antibody, V domains shown) VH: QSVEESGGRLVTPGTPLTLTCTVSGFSLGNYDISWVRQAPGKGLEWIGVIATVGDTYYASWAKGRFTISKTSATVDLKITSPTTEDTATYFCVRGDSPSTNEIFGLWGQGTLVTVSS VL: AVLTQTPSPVSAAVGGTLTINCQSSRTVYNNICLSWYQQKLGQPPKLLIYGASTLTSGVPSRFRGSGSGTQFTLTINDVQCGDAATYYCAGCFPSTSDMYGFGGGTEVVVK ?
Result block: 3.22

Values compiled from patent US12649778.
